# Protocol text: Absorbance and fluorescence maximum wavelengths and quantum yields of the CyNA library
# Type: physicochemical
# Condition label: CyNA library
# Description: Since the k values of the different CyNA compounds indicated some dependency on the chemical structure of the amine, the CyNA scaffold was derivatized with a broad range of primary amines (FIGS. 4A-4C). The fluorescence properties of the 80-member CyNA library were measured. The absorption maximum wavelengths ranged from 802 nm to 806 nm, emission maximum wavelengths ranged from 817 nm to 823 nm, and the average quantum yield was approximately 0.10 (Table 2). […]
Measured attribute: λem, fluorescence maximum wavelength (nm)
Numbers only, in nm.

Q: Field request: λem, fluorescence maximum wavelength | item: CCCN1/C(=C/C=C2\CCCC(/C=C/C3=[N+](CCC)c4ccccc4C3(C)C)=C2N(Cc2c(F)cccc2F)C(C)=O)C(C)(C)c2ccccc21
Result: 817

Consider the following items and state reported λem, fluorescence maximum wavelength for each.
1. CCCN1/C(=C/C=C2\CCCC(/C=C/C3=[N+](CCC)c4ccccc4C3(C)C)=C2N(C(C)=O)C2CCN(Cc3ccccc3)CC2)C(C)(C)c2ccccc21
2. CCCCCCCCCCCCCCN(C(C)=O)C1=C(/C=C/C2=[N+](CCC)c3ccccc3C2(C)C)CCC/C1=C\C=C1\N(CCC)c2ccccc2C1(C)C
3. CCCN1/C(=C/C=C2\CCCC(/C=C/C3=[N+](CCC)c4ccccc4C3(C)C)=C2N(CCCN2CCCC2=O)C(C)=O)C(C)(C)c2ccccc21
4. CCCN1/C(=C/C=C2\CCCC(/C=C/C3=[N+](CCC)c4ccccc4C3(C)C)=C2N(Cc2ccccc2)C(C)=O)C(C)(C)c2ccccc21

Result:
1: 820; 2: 818; 3: 820; 4: 821

Consider the following items and state reported λem, fluorescence maximum wavelength for each.
1. CCCN1/C(=C/C=C2\CCCC(/C=C/C3=[N+](CCC)c4ccccc4C3(C)C)=C2N(Cc2ccc(F)cc2)C(C)=O)C(C)(C)c2ccccc21
2. CCCN1/C(=C/C=C2\CCCC(/C=C/C3=[N+](CCC)c4ccccc4C3(C)C)=C2N(CC)C(C)=O)C(C)(C)c2ccccc21.[I-]

Result:
1. 823
2. 820

Consider the following items and state reported λem, fluorescence maximum wavelength for each.
1. CCCN1/C(=C/C=C2\CCCC(/C=C/C3=[N+](CCC)c4ccccc4C3(C)C)=C2N(CCCc2ccccc2)C(C)=O)C(C)(C)c2ccccc21
2. CCCN1/C(=C/C=C2\CCCC(/C=C/C3=[N+](CCC)c4ccccc4C3(C)C)=C2N(Cc2ccccc2F)C(C)=O)C(C)(C)c2ccccc21
3. CCCN1/C(=C/C=C2\CCCC(/C=C/C3=[N+](CCC)c4ccccc4C3(C)C)=C2N(CCc2ccc(CC)cc2)C(C)=O)C(C)(C)c2ccccc21
4. CCCN1/C(=C/C=C2\CCCC(/C=C/C3=[N+](CCC)c4ccccc4C3(C)C)=C2N(Cc2ccc(F)cc2F)C(C)=O)C(C)(C)c2ccccc21
5. CCCN1/C(=C/C=C2\CCCC(/C=C/C3=[N+](CCC)c4ccccc4C3(C)C)=C2N(Cc2cccc3ccccc23)C(C)=O)C(C)(C)c2ccccc21
6. CCCN1/C(=C/C=C2\CCCC(/C=C/C3=[N+](CCC)c4ccccc4C3(C)C)=C2N(CC(c2ccccc2)c2ccccc2)C(C)=O)C(C)(C)c2ccccc21
7. CCCN1/C(=C/C=C2\CCCC(/C=C/C3=[N+](CCC)c4ccccc4C3(C)C)=C2N(Cc2cccc(C)c2)C(C)=O)C(C)(C)c2ccccc21

Result:
1: 821; 2: 821; 3: 820; 4: 819; 5: 821; 6: 820; 7: 819

Consider the following items and state reported λem, fluorescence maximum wavelength for each.
1. CCCN1/C(=C/C=C2\CCCC(/C=C/C3=[N+](CCC)c4ccccc4C3(C)C)=C2N(CCc2ccc([N+](=O)[O-])cc2)C(C)=O)C(C)(C)c2ccccc21
2. CCCCN(C(C)=O)C1=C(/C=C/C2=[N+](CCC)c3ccccc3C2(C)C)CCC/C1=C\C=C1\N(CCC)c2ccccc2C1(C)C

Result:
1. 821
2. 820

Consider the following items and state reported λem, fluorescence maximum wavelength for each.
1. CCCN1/C(=C/C=C2\CCCC(/C=C/C3=[N+](CCC)c4ccccc4C3(C)C)=C2N(CCCN(C)C)C(C)=O)C(C)(C)c2ccccc21
2. CCCN1/C(=C/C=C2\CCCC(/C=C/C3=[N+](CCC)c4ccccc4C3(C)C)=C2N(Cc2ccc(OC)c(OC)c2)C(C)=O)C(C)(C)c2ccccc21

Result:
1: 821; 2: 820

Consider the following items and state reported λem, fluorescence maximum wavelength for each.
1. CCCN1/C(=C/C=C2\CCCC(/C=C/C3=[N+](CCC)c4ccccc4C3(C)C)=C2N(CCN2CCOCC2)C(C)=O)C(C)(C)c2ccccc21
2. CCCN1/C(=C/C=C2\CCCC(/C=C/C3=[N+](CCC)c4ccccc4C3(C)C)=C2N(CCC(c2ccccc2)c2ccccc2)C(C)=O)C(C)(C)c2ccccc21

Result:
1: 819; 2: 819

Consider the following items and state reported λem, fluorescence maximum wavelength for each.
1. CCCN1/C(=C/C=C2\CCCC(/C=C/C3=[N+](CCC)c4ccccc4C3(C)C)=C2N(Cc2cccc(OC)c2)C(C)=O)C(C)(C)c2ccccc21
2. CCCN1/C(=C/C=C2\CCCC(/C=C/C3=[N+](CCC)c4ccccc4C3(C)C)=C2N(Cc2ccc3c(c2)OCO3)C(C)=O)C(C)(C)c2ccccc21
3. CCCN1/C(=C/C=C2\CCCC(/C=C/C3=[N+](CCC)c4ccccc4C3(C)C)=C2N(Cc2ccc(Cl)cc2Cl)C(C)=O)C(C)(C)c2ccccc21

Result:
1. 820
2. 818
3. 820
